- ASSAY NOTES: Kinetics analysis of interaction between streptavidin protein and biotin using Biacore biosensor
- Type: binding
- TEST CONTEXT: Biacore 3000, obtained from kd/ka; read-out: Dissociation constant Kd
VALUE TYPE: pKd
Schema: pKd number; meaning minus log10 of the concentration expressed in molar units.

Here are 2 molecules together with their reported answers.
• mcSA010: mutant core streptavidin with Y83A, R84K, E116N (protein) core streptavidin subunit: AEAGITGTWYNQLGSTFIVTAGADGALTGTYESAVGNAESRYVLTGRYDSAPATDGSGTALGWTVAWKNNAKNAHSATTWSGQYVGGAEARINTQWLLTSGTTNANAWKSTLVGHDTFTKVKPSAAS = 9.65
• mcSA214: mutant core streptavidin with Y22S, Y83A, R84K, E101D, R103K, E116Q (protein) core streptavidin subunit: AEAGITGTWSNQLGSTFIVTAGADGALTGTYESAVGNAESRYVLTGRYDSAPATDGSGTALGWTVAWKNNAKNAHSATTWSGQYVGGADAKINTQWLLTSGTTQANAWKSTLVGHDTFTKVKPSAAS = 9.34

**Query** Annotate the molecule mcSA030: mutant core streptavidin with Y83S, R84K, E116N (protein) core streptavidin subunit: AEAGITGTWYNQLGSTFIVTAGADGALTGTYESAVGNAESRYVLTGRYDSAPATDGSGTALGWTVAWKNNSKNAHSATTWSGQYVGGAEARINTQWLLTSGTTNANAWKSTLVGHDTFTKVKPSAAS with its measured pKd.
**Result** 9.40
